test system: 695427-040-R-J1-PDC complex spheroid viability; assay: Anticancer human tumor 695427-040-R-J1-PDC patient-derived colon adenocarcinoma cell line growth inhibition [RAS]; settings: second compound 0.000949 µM; first compound 10 µM; stronger effect = lower value;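 further: viability read after seven days of drug exposure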
So basically: is viability, T/C under 50%? Then YES. Not under? Then NO.

See these solved cases before continuing.
1. CCC(CC)c1cc(NC2CCC(N)C2)n2nccc2n1 (stereo not drawn) + CCn1c(-c2cc(N3CCN(C)CC3)cnc2C(C)OC)c2c3cc(ccc31)-c1csc(n1)CC(NC(=O)C1CC1C)C(=O)N1CCCC(N1)C(=O)OCC(C)(C)C2 :: YES
2. NC1c2ccccc2OC12CCN(c1cnc3c(N4CCCc5ncccc54)n[nH]c3n1)CC2 (stereo not drawn) + CCn1c(-c2cc(N3CCN(C)CC3)cnc2C(C)OC)c2c3cc(ccc31)-c1csc(n1)CC(NC(=O)C1CC1C)C(=O)N1CCCC(N1)C(=O)OCC(C)(C)C2 :: YES
3. CC(C)NCC(C(=O)N1CCN(c2ncnc3c2C(C)CC3O)CC1)c1ccc(Cl)cc1 (stereo not drawn) + CCn1c(-c2cc(N3CCN(C)CC3)cnc2C(C)OC)c2c3cc(ccc31)-c1csc(n1)CC(NC(=O)C1CC1C)C(=O)N1CCCC(N1)C(=O)OCC(C)(C)C2 :: NO
4. Cc1nc(N2CCC3(CC2)COC(C)C3N)c(CO)nc1Sc1ccnc(N)c1Cl (stereo not drawn) + CCn1c(-c2cc(N3CCN(C)CC3)cnc2C(C)OC)c2c3cc(ccc31)-c1csc(n1)CC(NC(=O)C1CC1C)C(=O)N1CCCC(N1)C(=O)OCC(C)(C)C2 :: YES
5. CC(=O)OC12COC1CC(O)C1(C)C(=O)C(O)C3=C(C)C(OC(=O)C(O)C(NC(=O)OC(C)(C)C)c4ccccc4)CC(O)(C(OC(=O)c4ccccc4)C21)C3(C)C (stereo not drawn) + CCn1c(-c2cccnc2C(C)OC)c2c3cc(ccc31)N1CCOC(CC(NC(=O)C(C(C)C)N(C)C(=O)C3(F)CCN(C(=O)C#CC(C)(C)N(C)C)CC3)C(=O)N3CCCC(N3)C(=O)OCC(C)(C)C2)C1 :: NO
6. Cc1nc(N2CCC3(CC2)COC(C)C3N)c(CO)nc1Sc1ccnc(N)c1Cl (stereo not drawn) + CCn1c(-c2cccnc2C(C)OC)c2c3cc(ccc31)N1CCOC(CC(NC(=O)C(C(C)C)N(C)C(=O)C3(F)CCN(C(=O)C#CC(C)(C)N(C)C)CC3)C(=O)N3CCCC(N3)C(=O)OCC(C)(C)C2)C1 :: NO

Incoming: Strictly below 50%: is that where viability, T/C of CCC(CC)c1cc(NC2CCC(N)C2)n2nccc2n1 (stereo not drawn) + CCn1c(-c2cccnc2C(C)OC)c2c3cc(ccc31)N1CCOC(CC(NC(=O)C(C(C)C)N(C)C(=O)C3(F)CCN(C(=O)C#CC(C)(C)N(C)C)CC3)C(=O)N3CCCC(N3)C(=O)OCC(C)(C)C2)C1 sits?
Outgoing: YES

Incoming: Strictly below 50%: is that where viability, T/C of CC(Nc1ccc2c(c1)OCCn1cc(N3C(=O)OCC3C(F)F)nc1-2)C(N)=O (stereo not drawn) + CCn1c(-c2cccnc2C(C)OC)c2c3cc(ccc31)N1CCOC(CC(NC(=O)C(C(C)C)N(C)C(=O)C3(F)CCN(C(=O)C#CC(C)(C)N(C)C)CC3)C(=O)N3CCCC(N3)C(=O)OCC(C)(C)C2)C1 sits?
Outgoing: YES
